The origin of these recorded values is patent US20190054150A1.

Listed binders paired with reported MCR1 EC50 (nM); cAMP production, LANCE cAMP assay, CHO-MCR1 cells, cell pool B
- Tested on: MCR1 (human, UniProt Q01726 1-317)
- Sequence (Q01726 whole entry): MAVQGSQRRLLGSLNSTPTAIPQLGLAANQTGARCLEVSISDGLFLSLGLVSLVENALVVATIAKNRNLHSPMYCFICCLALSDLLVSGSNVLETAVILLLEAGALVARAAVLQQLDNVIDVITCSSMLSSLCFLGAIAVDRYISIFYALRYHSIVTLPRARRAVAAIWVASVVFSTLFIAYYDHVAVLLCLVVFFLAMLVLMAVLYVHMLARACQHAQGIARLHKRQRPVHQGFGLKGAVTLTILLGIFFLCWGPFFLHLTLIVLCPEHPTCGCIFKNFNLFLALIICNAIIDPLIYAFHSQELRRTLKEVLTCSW
- Test description: cell-based or functional assay
Write the answer as a number in nM, unit excluded.

# Binder, Experimental result
measured = [
    ("ACTH1-24-natural C-terminal spacer-α-MSH (peptide) peptide: SYSMEHFRWGKPVGKKRRPVKVYPELTGQRLREGDGPDGPADDGAGASYSMEHFRWGKPV", 1.02),
    ("XEHXRWSYSMEHFRWGKPVGKKRRPVKVYP (Nle at position 1 and dPhe at position 4 as printed: Nle-EH-dPhe-RWSYSMEHFRWGKPVGKKRRPVKVYP) [NDP-ACTH4-9-ACTH1-24]", 0.17),
]

Let us examine a further case.
Query string: Given the entry YVMGHFRWDRFGRRNSSSSGSSGAGQKR [γ-MSH with linker] , report its measured MCR1 EC50 (nM); cAMP production, LANCE cAMP assay, CHO-MCR1 cells, cell pool B.
Result string: 19
